- Experimental System: T1, human GPC3 on cells (HepG2 cells expressing full length human GPC3; GPC3-transfected HEK293T cells) (human, UniProt P51654 25-554)
- T1 construct: whole, on cells; also called GPC3-expressing HepG2 tumor cells
- Assay Details: flow cytometry on HepG2 cells
pEC50: −log10 of the molar value.
List of pEC50 values.

>  <Binder>
anti-human GPC3 IgG1 antibody clone 2 (antibody, V domains shown) VH: CQSVEESGGRLVTPGTPLTLTCTVSGFSLSTYNMGWIRQAPGEGLEYIGTISSSTGNTYYATWAKGRFTISKTSSTTVDLKITNLTTEDTATYFCVRVNNMGDIWGPGTLVTVSL VL: AIVMTQTPSSKSVAVGDTVTINCQASESVYKDNRLAWFQQKPGQAPKLLIYLASTLASGVPSRFKGSGSGTEFTLTISDVVCDDAATYYCGGYKDSLFDGFPFGGGTEVVVKR

>  <pEC50>
11.12

$$$$
>  <Binder>
anti-human GPC3 IgG1 antibody clone 12 (antibody, V domains shown) VH: CQSVEESGGRLVTPGTPLTLTCTVSGFSLSTYWMTWVRQAPGKGLEWIGIINPSGSAFYASWAKGRFTISKTSSATVDLKMTSLTAADTATYFCAGGGGMDPWGPGTLVTVSS VL: DPVLTQTPSSVSAAVGGTVSISCQSSQSIVKNYLSWFQQKPGQPPKRLIYKASTLPSGVPSRFKGSGSGTEFTLTISDLECDDAATYYCAASYSDNIYVFGGGTEVVVKR

>  <pEC50>
10.85

$$$$
>  <Binder>
anti-human GPC3 IgG1 antibody clone 22 (antibody, V domains shown) VH: CQSVEESGGRLVTPGTPLTLTCTVSGFSLSTYWMTWVRQAPGKGLEWIGIINPTGRAYYASWAKGRFTISKTSSATVDLKMTSLTAADTATYFCAGGGGMDPWGPGTLVTVSS VL: DPVLTQTPSSVSAAVGGTVTINCQSSQSVYSNYLSWFQKKPGQPPKRLIYKASTLVSGVPSRFVGSGSGTEFTLTISDLECDDAATYYCAASYSGNIYVFGGGTEVVVKR

>  <pEC50>
10.89

$$$$
>  <Binder>
anti-human GPC3 IgG1 antibody clone 40 (antibody, V domains shown, also called parental clone 40; chimeric anti-GPC3 clone 40) VH: CQSVEESGGRLVTPGTPLTLTCTVSGFSLSTYWMTWVRQAPGKGLEWIGIISPAGSAYYASWAKGRFTISKTSSATVDLKMTSLTTADTATYFCAGGGGMDPWGPGTLVTVSS VL: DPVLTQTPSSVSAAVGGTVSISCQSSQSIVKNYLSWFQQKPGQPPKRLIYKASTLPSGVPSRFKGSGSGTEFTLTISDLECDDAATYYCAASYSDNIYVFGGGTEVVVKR

>  <pEC50>
10.89

$$$$
>  <Binder>
anti-human GPC3 IgG1 antibody clone 17 (antibody, V domains shown) VH: CQSVEESGGRLVTPGTPLTLTCTVSGFSLSTYDMSWVRQAPGKGLEYIGWINSGGSPYYARWAKGRFTISKTSSTTVDLKMTSPTTEDTATYFCARHRSGYYGDIWGPGTLVTVSL VL: DPVLTQTPSSVSAAVGDTVSINCQSSQNVYKNRLAWYQQKPGQPPKLLIYGASTLASGVPSRFKGSGSGTQFTLTISDLECDDAATYYCAGGYSTIVDNTFGGGTEVVVKR

>  <pEC50>
10.37

$$$$
>  <Binder>
anti-human GPC3 IgG1 antibody clone 74 (antibody, V domains shown) VH: QCQSVEESGGRLVTPGTPLTLTYTVSGFSLNNYDMSWVRQAPGKGLQYIGWINSGGTAYYASWAKGRFTISKTSSTTVDLKMTSPTTEDTATYFCARHRYGYYGDIWGPGTLVTVSL VL: DPVLTQTPSSVSAAVGGTVTINCQSSQNVYNNNRLAWYQQKLGQPPKLLIYFASKLASGVPSRFSGSGSGTQFTLTISGVQCDDAATYYCAGGYNTIVDNGFGGGTEVVVKR

>  <pEC50>
11.38

$$$$
>  <Binder>
anti-human GPC3 IgG1 antibody clone 8 (antibody, V domains shown) VH: CQSVEESGGRLVTPGTALTLTCTVSGFSLSTYWMTWVRQAPGKGLEWIGIINPGGSAYYASWAKGRFTISKTSSATVDLKMTSLTAADTATYFCAGGGGMDPWGPGTLVTVSS VL: DPVLTQTPSSVSAAVGGTVSISCQSSQSIIKNYLSWFQHKPGQPPKRLIYRASTLPSGVPSRFEGSGSGTEFTLTISDLECDDAATYYCAASYSDNIYVFGGGTEVVVKR

>  <pEC50>
10.92

$$$$
